Tested on: muMax20 (Max(13-93) K31hArg/K57hArg, M65Nle)
test-summary: PBM 8-mer E-score (E-score (rank enrichment, -0.5 to 0.5)); higher = stronger preferential binding
The full ranking holds about 33,000 sequences; the median of “E-score (rank enrichment, -0.5 to 0.5)” is about -0.0068, and the highest 2% start at about 0.24. The full list was thinned out, with the highest values kept by preference.
PBM 8-mer E-score overview

[
  {
    "biosequence": "GTGGAAAC",
    "test-target": "muMax20 (Max(13-93) K31hArg/K57hArg, M65Nle)",
    "PBM 8-mer E-score": 0.119
  },
  {
    "biosequence": "AAGATAAC",
    "test-target": "muMax20 (Max(13-93) K31hArg/K57hArg, M65Nle)",
    "PBM 8-mer E-score": 0.172
  },
  {
    "biosequence": "GTGCCCTA",
    "test-target": "muMax20 (Max(13-93) K31hArg/K57hArg, M65Nle)",
    "PBM 8-mer E-score": -0.0334
  },
  {
    "biosequence": "CCGTGCCG",
    "test-target": "muMax20 (Max(13-93) K31hArg/K57hArg, M65Nle)",
    "PBM 8-mer E-score": -0.206
  },
  {
    "biosequence": "ATGAGACC",
    "test-target": "muMax20 (Max(13-93) K31hArg/K57hArg, M65Nle)",
    "PBM 8-mer E-score": -0.0938
  },
  {
    "biosequence": "CACCAGGG",
    "test-target": "muMax20 (Max(13-93) K31hArg/K57hArg, M65Nle)",
    "PBM 8-mer E-score": -0.137
  },
  {
    "biosequence": "TAGACTCA",
    "test-target": "muMax20 (Max(13-93) K31hArg/K57hArg, M65Nle)",
    "PBM 8-mer E-score": -0.163
  },
  {
    "biosequence": "CTGATGTA",
    "test-target": "muMax20 (Max(13-93) K31hArg/K57hArg, M65Nle)",
    "PBM 8-mer E-score": -0.0502
  },
  {
    "biosequence": "TCACCGCA",
    "test-target": "muMax20 (Max(13-93) K31hArg/K57hArg, M65Nle)",
    "PBM 8-mer E-score": -0.0327
  },
  {
    "biosequence": "GAACGAAA",
    "test-target": "muMax20 (Max(13-93) K31hArg/K57hArg, M65Nle)",
    "PBM 8-mer E-score": 0.0569
  },
  {
    "biosequence": "ACCGCGTA",
    "test-target": "muMax20 (Max(13-93) K31hArg/K57hArg, M65Nle)",
    "PBM 8-mer E-score": 0.0588
  },
  {
    "biosequence": "AAGATAAG",
    "test-target": "muMax20 (Max(13-93) K31hArg/K57hArg, M65Nle)",
    "PBM 8-mer E-score": 0.15
  },
  {
    "biosequence": "CTACCGAA",
    "test-target": "muMax20 (Max(13-93) K31hArg/K57hArg, M65Nle)",
    "PBM 8-mer E-score": -0.1
  },
  {
    "biosequence": "GTGATGTA",
    "test-target": "muMax20 (Max(13-93) K31hArg/K57hArg, M65Nle)",
    "PBM 8-mer E-score": 0.277
  },
  {
    "biosequence": "CTAGTGCA",
    "test-target": "muMax20 (Max(13-93) K31hArg/K57hArg, M65Nle)",
    "PBM 8-mer E-score": 0.0056
  },
  {
    "biosequence": "ATATCGCG",
    "test-target": "muMax20 (Max(13-93) K31hArg/K57hArg, M65Nle)",
    "PBM 8-mer E-score": 0.0599
  },
  {
    "biosequence": "CGGTACAC",
    "test-target": "muMax20 (Max(13-93) K31hArg/K57hArg, M65Nle)",
    "PBM 8-mer E-score": -0.0567
  },
  {
    "biosequence": "AAGTGTAA",
    "test-target": "muMax20 (Max(13-93) K31hArg/K57hArg, M65Nle)",
    "PBM 8-mer E-score": -0.0103
  },
  {
    "biosequence": "GCCCATTA",
    "test-target": "muMax20 (Max(13-93) K31hArg/K57hArg, M65Nle)",
    "PBM 8-mer E-score": -0.0555
  },
  {
    "biosequence": "CGAAACAG",
    "test-target": "muMax20 (Max(13-93) K31hArg/K57hArg, M65Nle)",
    "PBM 8-mer E-score": -0.176
  },
  {
    "biosequence": "GTGGACGA",
    "test-target": "muMax20 (Max(13-93) K31hArg/K57hArg, M65Nle)",
    "PBM 8-mer E-score": -0.0727
  },
  {
    "biosequence": "GAAGAGGC",
    "test-target": "muMax20 (Max(13-93) K31hArg/K57hArg, M65Nle)",
    "PBM 8-mer E-score": -0.108
  }
]
